test: Simulated intestinal fluid (SIF) stability in the presence of various enzymes; type: in vitro ADME; details: simulated intestinal fluid with elastase, pH 6.8, SIF + Elastase, 1 μM; read-out: Half-life
Quantity Kind: half-life at 1 μM

Solved cases (5 shown):
CCCCC/C=C\C/C=C\CCCCCCCC(=O)OCC(COC(=O)CCC(=O)OCCNC(=O)CCCCCCCCCCCCCCC)OC(=O)CCCCCCC/C=C\C/C=C\CCCCC (centres unmarked) [Compound I-13] | 12 min
CC/C=C\C/C=C\C/C=C\C/C=C\C/C=C\CCCC(=O)OCCNC(=O)CCCCCCCCCCCCCCC [Compound I-5] | 65 min
CCCCCCCCCCCCCCCC(=O)NCCOC(=O)CCC(=O)OCC(COC(=O)CCC)OC(=O)CCC (centres unmarked) [Compound I-11] | 37 min
CCCCCCCCCCCCCCCC(=O)NCCOC(=O)CCC(=O)OC[C@H]1O[C@@](CO)(O[C@H]2O[C@H](CO)[C@@H](O)[C@H](O)[C@H]2O)[C@@H](O)[C@@H]1O [Compound I-7] | 12 min
CCCCC/C=C\C/C=C\CCCCCCCC(=O)OCCNC(=O)CCCCCCCCCCCCCCC [Compound I-6] | > 120 min

Challenge: For the compound CCCCCCCCCCCCCCCC(=O)NCCOC(=O)CCC [Compound I-2] , what half-life at 1 μM is on record?
Response given: 37 min

Challenge: Cool, now CCCCCCCCCCCCCCCC(=O)NCCOC(=O)CCC(=O)OCC(COC(=O)CCCCCCC)OC(=O)CCCCCCC (centres unmarked) [Compound I-3, PEA-Succinate-Glycerol-Di-Caprylic]
Response given: 55 min

Challenge: Query CCCCCCCCCCCCCCCC(=O)NCCOC(=O)CCC(=O)OCC(O)CO (centres unmarked) [Compound I-9] next
Response given: 15 min

====

experiment: in vitro; details: male, Sprague-Dawley, rat, s9, CLint (mL/min/mg protein)
Quantity Kind: microsomal CLint at 1 μM (µL/min/mg)
Give the number; µL/min/mg is assumed, so skip it.

Recorded microsomal CLint at 1 μM, per entry:
CCCCCCCCCCCCCCCC(=O)NCCOC(=O)CCC(=O)OCC(COC(=O)CCC)OC(=O)CCC (centres unmarked) | 425
CCCCCCCCCCCCCCCC(=O)NCCOC(=O)CCC | 123
CC/C=C\C/C=C\C/C=C\C/C=C\C/C=C\CCCC(=O)OCCNC(=O)CCCCCCCCCCCCCCC | 18.2

Proceed to the following item.
Challenge: Can you look up the measured microsomal CLint at 1 μM of CCCCCCCCCCCCCCCC(=O)NCCOC(=O)CCC(=O)OCC(COC(=O)CCCCCCC)OC(=O)CCCCCCC (centres unmarked) [Compound I-3, PEA-Succinate-Glycerol-Di-Caprylic] for me?
Response given: 26.8

====

experiment: Plasma stability (37° C., pH 7.4), rat; type: in vitro ADME, Sprague-Dawley rat; conditions: rat plasma, test article 1 μM, 37° C., pH 7.4, 60 min
Quantity Kind: % Remaining of Initial (n = 1), 60 min

Sample records with % Remaining of Initial (n = 1), 60 min:
CCCCCCCCCCCCCCCC(=O)NCCOC(=O)CCC(=O)OCC(O)CO (stereo not drawn) [Compound I-9] | <1.0%
CCCCCCCCCCCCCCCC(=O)NCCOC(=O)CCC(=O)OC[C@H]1O[C@@](CO)(O[C@H]2O[C@H](CO)[C@@H](O)[C@H](O)[C@H]2O)[C@@H](O)[C@@H]1O [Compound I-7] | <1.0%

Challenge: Value lookup for % Remaining of Initial (n = 1), 60 min; key = CCCCC/C=C\C/C=C\CCCCCCCC(=O)OCCNC(=O)CCCCCCCCCCCCCCC [Compound I-6]
Response given: 100%

Provenance of the data: patent US11547681B2
